The reader will find reported pIC50 values listed item by item below.
- system: cGMP-specific 3',5'-cyclic phosphodiesterase (Homo sapiens)
- experiment: Inhibition of N-terminal GST-tagged full length recombinant human PDE5A1 catalytic domain expressed in Baculovirus infected Sf9 insect cells using FAM-cGMP as substrate after 1 hr by fluorescence polarization assay
Quick note: pIC50 values are minus log10 of concentrations in mol/L.

API: value(readout= pIC50, system= cGMP-specific 3',5'-cyclic phosphodiesterase (Homo sapiens), query= CCc1ccc([C@@H]2c3[nH]c4ccccc4c(=O)c3CN2c2ncc(-c3ccccn3)cn2)s1 ) 9.28

What value of pIC50 on cGMP-specific 3',5'-cyclic phosphodiesterase (Homo sapiens) does CCc1ccc([C@H]2c3[nH]c4ccccc4c(=O)c3CN2c2ncc(-c3ccccn3)cn2)o1 have? 9.01

Query for cGMP-specific 3',5'-cyclic phosphodiesterase (Homo sapiens): what pIC50 does the record show for CCc1ccc(C2c3[nH]c4ccccc4c(=O)c3CN2c2ncccn2)o1 (centres undefined) ? 8.50

Provide value of pIC50 for this record tested with cGMP-specific 3',5'-cyclic phosphodiesterase (Homo sapiens): CCc1ccc(C2c3[nH]c4ccccc4c(=O)c3CN2c2ncc(-c3ccccn3)cn2)s1 (racemic) 9.22

Enter reported pIC50 observed with cGMP-specific 3',5'-cyclic phosphodiesterase (Homo sapiens) for CCc1ccc(C2c3[nH]c4ccccc4c(=O)c3CN2c2ncc(-c3cccnc3F)cn2)s1 (centres undefined) 9.09

Entry CCc1ccc(C2c3[nH]c4ccccc4c(=O)c3CN2c2ccc(-c3ccccn3)cn2)s1 (centres undefined) , system cGMP-specific 3',5'-cyclic phosphodiesterase (Homo sapiens): what pIC50 was measured? 8.92

What is its pIC50 for cGMP-specific 3',5'-cyclic phosphodiesterase (Homo sapiens)? Entry: CCc1ccc(C2c3[nH]c4ccccc4c(=O)c3CN2c2ncc(-c3cccnc3)cn2)s1 (centres undefined) 9.17

API: value(readout= pIC50, system= cGMP-specific 3',5'-cyclic phosphodiesterase (Homo sapiens), query= CCc1ccc(C2c3[nH]c4ccccc4c(=O)c3CN2c2ncc(-c3ccncc3)cn2)s1 (centres undefined) ) 9.22

Lab note: need pIC50 with cGMP-specific 3',5'-cyclic phosphodiesterase (Homo sapiens) for entry CCc1ccc(C2c3[nH]c4ccccc4c(=O)c3CN2c2ccccn2)s1 (centres undefined) , please look it up. 8.55
